- System Under Test: T1, murine IL-11 (mouse, UniProt P47873 22-199)
- T1 sequence: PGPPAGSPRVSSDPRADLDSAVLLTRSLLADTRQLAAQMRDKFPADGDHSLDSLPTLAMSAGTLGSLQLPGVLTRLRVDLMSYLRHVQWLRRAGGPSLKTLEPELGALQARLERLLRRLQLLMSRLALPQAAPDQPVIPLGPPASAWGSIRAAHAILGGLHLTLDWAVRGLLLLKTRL
- Protocol Notes: cell-based or functional assay
# reported RGA Efficacy (%); entries follow
Put down the number, then write its unit next to it.

Solved entries:
Binder | RGA Efficacy (%)
TPP-26321 (antibody, V domains shown) VH: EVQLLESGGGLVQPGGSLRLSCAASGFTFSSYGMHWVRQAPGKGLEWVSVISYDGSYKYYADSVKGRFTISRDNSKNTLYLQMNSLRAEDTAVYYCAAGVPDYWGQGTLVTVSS VL: QSVLTQPPSASGTPGQRVTISCTGSSSNIGAGYDVHWYQQLPGTAPKLLIYSNNERPSGVPDRFSGSKSGTSASLAISGLRSEDEADYYCAAWDLSLNGPVFGGGTKLTVL | 93.5%
TPP-26332 (antibody, V domains shown) VH: EVQLLESGGGLVQPGGSLRLSCAASGFTFSSYKMHWVRQAPGKGLEWVSVISYDGSYKYYADSVKGRFTISRDNSKNTLYLQMNSLRAEDTAVYYCAAGVPDYWGQGTLVTVSS VL: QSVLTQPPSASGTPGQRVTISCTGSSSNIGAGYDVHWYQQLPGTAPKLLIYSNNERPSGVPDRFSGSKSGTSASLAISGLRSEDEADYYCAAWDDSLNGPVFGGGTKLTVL | 0.9%

Please report the measured RGA Efficacy (%) for TPP-26300 (antibody, V domains shown) VH: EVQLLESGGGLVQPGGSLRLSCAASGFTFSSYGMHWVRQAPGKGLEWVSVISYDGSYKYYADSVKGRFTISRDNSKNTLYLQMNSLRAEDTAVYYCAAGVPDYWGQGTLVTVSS VL: QSVLTQPPSASGTPGQRVTISCTGSSSNIGAGYDVHWYQQLPGTAPKLLIYSNNERPSGVPDRFSGSKSGTSASLAISGLRSEDEADYYCAAWDSSLNGPVFGGGTKLTVL 94.9%
